The measured values listed here are drawn from patent EP4790046A1.

tested on: SNU-C5; test: alamarBlue cell viability (survival rate, IC50), SNU-C5; format: cell-based; conditions: SNUC5 cells; compound 2.5-40 µM; read-out: IC50 values
Task for the reader: assign each of the following compounds its reported pIC50.
In plain terms, pIC50 is the concentration in mol/L turned into minus its base-10 logarithm.

// query Bench note: what pIC50 did O=C1[O][Pt]2([NH][C@@H]3CCCC[C@H]3[NH]2)[O]C1=O [oxaliplatin, reference compound] show?
// result 4.90

// query Bench note: what pIC50 did C=CCc1cc(OC)c(O[C@H](C)[C@H](c2ccc(O)c(OC)c2)c2ccc(O)c(C(=O)CCCCCCCCc3ccc(O)cc3)c2O)c(OC)c1 [Compound 3, Myricone C] show?
// result 5.60
